The reported measurements were obtained from patent US7776862B2.

# pIC50 values compiled below
# Experimental target: human CXCR3 (N-delta 4) (Homo sapiens, UniProt P49682)
# Construct: CD8 leader; Flag tag; expressed in transfected cells; membranes used
# Sequence (P49682 5-368 limits assumed): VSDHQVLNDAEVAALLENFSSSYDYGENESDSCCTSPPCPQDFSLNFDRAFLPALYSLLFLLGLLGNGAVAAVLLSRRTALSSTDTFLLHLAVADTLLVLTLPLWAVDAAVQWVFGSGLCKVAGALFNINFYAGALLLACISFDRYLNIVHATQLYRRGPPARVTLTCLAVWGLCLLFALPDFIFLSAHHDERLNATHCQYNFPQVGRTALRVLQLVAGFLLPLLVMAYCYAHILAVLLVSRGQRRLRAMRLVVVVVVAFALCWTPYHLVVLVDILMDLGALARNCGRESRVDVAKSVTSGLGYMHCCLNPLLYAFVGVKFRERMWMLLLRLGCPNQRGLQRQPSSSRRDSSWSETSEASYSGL
# Experimental details: Human CXCR3 (N-delta 4) scintillation proximity assay (SPA), [125I] IP-10 binding
# Conditions used: IC50 rating; Ba/F3-hCXCR3 (N-delta 4) membranes, 25 pM [125I] IP-10
pIC50: −log10 of the molar value.

Consider the molecule shown here: N#Cc1ccc(CN2CCC(N3CCN(c4ncc(C(=O)NC5CCCC5)cc4Cl)CC3)CC2)cc1 [compound 190] What is its recorded pIC50?
< 7.00

Consider the molecule shown here: CCNC(=O)NCc1cnc(N2CCN(C3CCN(Cc4ccc(Cl)cc4)CC3)[C@@H](C)C2)c(Cl)c1 [compound 385] What is its recorded pIC50?
> 7.60

Consider the molecule shown here: CC[C@H]1CN(c2ncc(C(=O)NC)cc2Cl)CCN1C1CCN(Cc2ccccc2F)CC1 [compound 295] What is its recorded pIC50?
7.00 to 7.60

Consider the molecule shown here: CCNC(=O)c1cnc(N2CCN(C3CCN(Cc4ccc(Cl)cc4)CC3)[C@@H](C)C2)c(Cl)c1 [compound 227] What is its recorded pIC50?
> 7.60

Consider the molecule shown here: COc1ccc(CN2CCC(N3CCN(c4ncc(C(=O)NCc5ccc(F)cc5)cc4Cl)CC3)CC2)cc1 [compound 50] What is its recorded pIC50?
< 7.00
